System: PDC 899932-113-R3-J6 complex spheroid viability;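 further: spheroids exposed to agents for seven days before readout; 100% = DMSO vehicle control wells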
Assay: Anticancer human tumor 899932-113-R3-J6-PDC patient-derived melanoma cell line growth inhibition [RAS]
Settings: second compound 1 µM; first compound 0.01 µM; active compounds read low
Listing of entries alongside the reported viability, T/C.

{"MOLECULE": "Nc1ccn(C2OC(CO)C(O)C2(F)F)c(=O)n1 (centres undefined) + C#Cc1c(F)ccc2cc(O)cc(-c3ncc4c(N5CC6CCC(C5)N6)nc(OCC56CCCN5CC(F)C6)nc4c3F)c12", "viability, T/C [%]": 70.4}
{"MOLECULE": "CCN1CCN(Cc2ccc(Nc3ncc(F)c(-c4cc(F)c5nc(C)n(C(C)C)c5c4)n3)nc2)CC1 + C#Cc1c(F)ccc2cc(O)cc(-c3ncc4c(N5CC6CCC(C5)N6)nc(OCC56CCCN5CC(F)C6)nc4c3F)c12", "viability, T/C [%]": 112}
{"MOLECULE": "CC(C)n1nc(-c2ccc3oc(N)nc3c2)c2c(N)ncnc21 + C=CC(=O)N1CCN(c2nc(OCC3CCCN3C)nc3c(F)c(-c4nc(N)cc(C)c4C(F)(F)F)c(Cl)cc23)C(C)C1", "viability, T/C [%]": 100}
{"MOLECULE": "CCN1CCN(Cc2ccc(Nc3ncc(F)c(-c4cc(F)c5nc(C)n(C(C)C)c5c4)n3)nc2)CC1 + C=CC(=O)N1CCN(c2nc(OCC3CCCN3C)nc3c(F)c(-c4nc(N)cc(C)c4C(F)(F)F)c(Cl)cc23)C(C)C1", "viability, T/C [%]": 104}
